# test-system: Human immunodeficiency virus type 1 reverse transcriptase (Human immunodeficiency virus 1)
# experiment-summary: Compound ability to inhibit the production of HIV reverse transcriptase (RT) in culture supernatant of CEM-CL13 on at 22 days at a concentration 0.2 uM
# Assay type: functional
property-name: Activity (c.p.m. 50ul-1)
In your answer, state the number alone without any accompanying words.

stdin: Fill in reported Activity (c.p.m. 50ul-1) for this entry: Cc1cn([C@H]2C[C@H](N=[N+]=[N-])[C@@H](COP(=O)(O)OCCO[C@H]3O[C@H](CO)[C@@H](O)[C@H](O)[C@@H]3O)O2)c(=O)[nH]c1=O
stdout: 27000

stdin: Fill in reported Activity (c.p.m. 50ul-1) for this entry: Cc1cn([C@H]2C[C@H](N=[N+]=[N-])[C@@H](COP(=O)(O)OC[C@H]3OC(O)[C@H](O)[C@@H](O)[C@@H]3O)O2)c(=O)[nH]c1=O (some centres not stated)
stdout: 2200

stdin: Fill in reported Activity (c.p.m. 50ul-1) for this entry: Cc1cn([C@H]2C[C@H](N=[N+]=[N-])[C@@H](COP(=O)(O)OC[C@H]3OC(O)[C@@H](O)[C@@H](O)[C@@H]3O)O2)c(=O)[nH]c1=O (some centres not stated)
stdout: 27000

stdin: Fill in reported Activity (c.p.m. 50ul-1) for this entry: Cc1cn([C@H]2C[C@H](N=[N+]=[N-])[C@@H](CO)O2)c(=O)[nH]c1=O
stdout: 6400

stdin: Fill in reported Activity (c.p.m. 50ul-1) for this entry: CCCCCCCCCCCCCCCCOP(=O)(OC[C@H]1OC(O)[C@@H](O)[C@@H](O)[C@@H]1O)OC[C@H]1OC(n2cc(C)c(=O)[nH]c2=O)C[C@@H]1N=[N+]=[N-] (some centres not stated)
stdout: 24000

stdin: Fill in reported Activity (c.p.m. 50ul-1) for this entry: CCCCCCCCCCCCCCCCOP(=O)(OC[C@H]1OC(O)[C@H](O)[C@@H](O)[C@@H]1O)OC[C@H]1OC(n2cc(C)c(=O)[nH]c2=O)C[C@@H]1N=[N+]=[N-] (some centres not stated)
stdout: 45000

stdin: Fill in reported Activity (c.p.m. 50ul-1) for this entry: CCCCCCCCCCCCCCCCOP(=O)(OCCO[C@H]1O[C@H](CO)[C@@H](O)[C@H](O)[C@@H]1O)OCC1OC(n2cc(C)c(=O)[nH]c2=O)CC1N=[N+]=[N-] (some centres not stated)
stdout: 52000
